tested on: HOP-18; assay: NCI tumour cell line growth inhibition, 48 h
Activity calls are given as the source filed them. Cut-off read from the data, not from the text of the source: active = GI50 up to about 1.1 µM and inactive = higher.
Each entry below lists one item and its recorded GI50 value.

molecule: CCc1ccccc1NC(=O)C(=O)C1C(=O)N(c2ccccc2)N=C1N (stereo unspecified)
GI50: > 100 µM (inactive)
--
molecule: Nc1ccccc1Sc1ccc(Cl)cc1
GI50: 43.2 µM (inactive)
--
molecule: CC(=O)Nc1ccc(/C=N\N2C(=O)c3ccccc3C2=O)cc1
GI50: > 100 µM (inactive)
--
molecule: CCCCCCCCCCCCCCC1OC(=O)c2ccccc21 (stereo unspecified)
GI50: > 100 µM (inactive)
--
molecule: COc1ccc(Cl)cc1NC(=O)c1cccc([N+](=O)[O-])c1O
GI50: 2.51 µM (inactive)
--
molecule: COc1ccc2[nH]c3c(C)c4ccncc4c(C)c3c2c1
GI50: 1.29 µM (inactive)
--
molecule: COC(=O)/C(=C/c1ccc(OC)cc1)c1cc(OC)c(OC)c(OC)c1
GI50: > 100 µM (inactive)
--
molecule: Cc1c(C(=O)O)n(C)c(=O)n(C)c1=O
GI50: > 100 µM (inactive)
--
molecule: COc1cc2c(oc(=O)c3cc(C)cc(OC)c32)c2c(C3OC(C)C(O)C(C)(O)C3O)ccc(O)c12 (stereo unspecified)
GI50: 1.41 µM (inactive)
--
molecule: CN(C)CCCNC(=O)N/N=C/c1ccccc1
GI50: > 100 µM (inactive)
--
molecule: CCOC(=O)C1Cc2c(ccc(OC)c2OC)C(=O)C1N (stereo unspecified)
GI50: 97.5 µM (inactive)
--
molecule: CC(=O)/C(=C\c1ccccc1O)C(=O)Nc1ccccc1C
GI50: 40.2 µM (inactive)
--
molecule: CC(=O)NC(CCCCNC(=O)N(CCCl)N=O)C(=O)NCc1ccccc1 (stereo unspecified)
GI50: > 100 µM (inactive)
--
molecule: c1ccc2c(c1)NCc1cc3ccccc3nc1O2
GI50: > 100 µM (inactive)
--
molecule: COc1ccc(-c2cc(O)c3cc4c(cc3n2)OCO4)cc1OC
GI50: > 100 µM (inactive)
--
molecule: O=c1c(-c2ccccc2)c2oc(c1-c1ccccc1)CS(=O)(=O)CCC2
GI50: < 0.01 µM (active)
